Assay: Pharmacokinetics of the compounds in mice (IV and oral single dose)
Format: in vivo
Details: mouse, plasma; Balb/c mice, PO 3 mg/kg vs IV 1 mg/kg; read-out: F(%) absolute oral bioavailability

[
  {
    "compound": "COc1nc(C)ccc1Cn1nc(C(=O)NCC2(O)CC2)c2ncc(C)cc21 [Example 9]",
    "unitLabel": "%",
    "bioavailability": 78
  },
  {
    "compound": "COc1ncnc(Cn2nc(C(=O)NCC3(O)CC3)c3ncc(C)cc32)c1C [Example 1]",
    "unitLabel": "%",
    "bioavailability": 100
  },
  {
    "compound": "CCOc1ncnc(Cn2nc(C(=O)NCC3(O)CC3)c3ncc(C)cc32)c1C [Example 3]",
    "unitLabel": "%",
    "bioavailability": 100
  },
  {
    "compound": "COc1ncnc(Cn2nc(C(=O)NCC3(O)CC3)c3ncc(C)nc32)c1C [Example 14]",
    "unitLabel": "%",
    "bioavailability": 90
  },
  {
    "compound": "COc1ncnc(Cn2cc(C(=O)NCC3(O)CC3)c3ncc(C)nc32)c1C [Example 11]",
    "unitLabel": "%",
    "bioavailability": 100
  },
  {
    "compound": "COc1ncnc(Cn2cc(C(=O)NCC3(O)CC3)c3ncc(C)cc32)c1C [Example 85]",
    "unitLabel": "%",
    "bioavailability": 94
  },
  {
    "compound": "COc1cnc2c(C(=O)NCC3(O)CC3)cn(Cc3ncnc(OC)c3C)c2n1 [Example 12]",
    "unitLabel": "%",
    "bioavailability": 100
  },
  {
    "compound": "CCOc1ncnc(Cn2cc(C(=O)NCC3(O)CC3)c3ncc(C)nc32)c1C [Example 13]",
    "unitLabel": "%",
    "bioavailability": 100
  },
  {
    "compound": "COCCNC(=O)c1nn(Cc2ncnc(OC)c2C)c2cc(C)cnc12 [Example 10]",
    "unitLabel": "%",
    "bioavailability": 100
  }
]

###

// each record: one item and its MIC for Mycobacterium tuberculosis H37Rv
metric: MIC (µM)

[
  {
    "compound": "COc1cnc2c(C(=O)NCC3(O)CC3)cn(Cc3ncnc(OC)c3C)c2n1 [Example 12]",
    "metric": "MIC",
    "boundOperator": "=",
    "measured": 0.25
  },
  {
    "compound": "CCOc1ncnc(Cn2nc(C(=O)NCC3(O)CC3)c3ncc(C)cc32)c1C [Example 3]",
    "metric": "MIC",
    "boundOperator": "≤",
    "measured": 0.625
  },
  {
    "compound": "COc1ncnc(Cn2cc(C(=O)NCC3(O)CC3)c3ncc(C)cc32)c1C [Example 85]",
    "metric": "MIC",
    "boundOperator": "≤",
    "measured": 0.0625
  },
  {
    "compound": "COc1ncnc(Cn2cc(C(=O)NCC3(O)CC3)c3ncc(C)nc32)c1C [Example 11]",
    "metric": "MIC",
    "boundOperator": "=",
    "measured": 0.5
  },
  {
    "compound": "CCOc1ncnc(Cn2cc(C(=O)NCC3(O)CC3)c3ncc(C)nc32)c1C [Example 13]",
    "metric": "MIC",
    "boundOperator": "=",
    "measured": 0.25
  },
  {
    "compound": "COCCNC(=O)c1nn(Cc2ncnc(OC)c2C)c2cc(C)cnc12 [Example 10]",
    "metric": "MIC",
    "boundOperator": "=",
    "measured": 5
  },
  {
    "compound": "COc1ncnc(Cn2nc(C(=O)NCC3(O)CC3)c3ncc(C)cc32)c1C [Example 1]",
    "metric": "MIC",
    "boundOperator": "=",
    "measured": 1.25
  }
]
